tested on: Aβ40 in conditioned medium of cells stably expressing Amyloid Precursor Protein (APP); test: In vitro BACE cell-based assay (HEK cell assay), Aβ40 sandwich ELISA; details: Homo sapiens, HEK293
measurementLabel: IC50 (nM)

Sample answers from the record:
{"molSmiles": "C[C@@]1(c2cc(Nc3nccc4cc(C#N)cnc34)cnc2F)CS(=O)(=O)C2(CCC2)C(N)=N1", "experimentalSystem": "Aβ40 in conditioned medium of cells stably expressing Amyloid Precursor Protein (APP)", "IC50, nM": 14.1}
{"molSmiles": "COc1cc(Cl)cnc1C(=O)Nc1ccc(F)c([C@]2(CF)CS(=O)(=O)C(C)(C)C(N)=N2)c1", "experimentalSystem": "Aβ40 in conditioned medium of cells stably expressing Amyloid Precursor Protein (APP)", "IC50, nM": 17.3}

[A] CC1(C)C(N)=N[C@](C)(c2cc(NC(=O)c3ccc(C#N)cn3)cnc2F)CS1(=O)=O
[B] Cc1c(C(=O)Nc2ccc(F)c([C@]3(CF)CS(=O)(=O)C(C)(C)C(N)=N3)c2)nc2ccc(F)cn12
[C] Cc1nc(F)c([C@]2(C)CS(=O)(=O)C(C)(C)C(N)=N2)cc1NC(=O)c1ccc(Cl)cn1
# input Hey, quick one: sort these by IC50, low to high? Form field (ranking): labels in requested order.
# output A, B, C

###

biological target: Beta Secretase enzyme (BACE1) (Homo sapiens, UniProt P56817); test: In vitro enzymatic BACE FRET assay; type: biochemical; details: read-out: BACE1 FRET assay IC50
Sequence (P56817 46-501): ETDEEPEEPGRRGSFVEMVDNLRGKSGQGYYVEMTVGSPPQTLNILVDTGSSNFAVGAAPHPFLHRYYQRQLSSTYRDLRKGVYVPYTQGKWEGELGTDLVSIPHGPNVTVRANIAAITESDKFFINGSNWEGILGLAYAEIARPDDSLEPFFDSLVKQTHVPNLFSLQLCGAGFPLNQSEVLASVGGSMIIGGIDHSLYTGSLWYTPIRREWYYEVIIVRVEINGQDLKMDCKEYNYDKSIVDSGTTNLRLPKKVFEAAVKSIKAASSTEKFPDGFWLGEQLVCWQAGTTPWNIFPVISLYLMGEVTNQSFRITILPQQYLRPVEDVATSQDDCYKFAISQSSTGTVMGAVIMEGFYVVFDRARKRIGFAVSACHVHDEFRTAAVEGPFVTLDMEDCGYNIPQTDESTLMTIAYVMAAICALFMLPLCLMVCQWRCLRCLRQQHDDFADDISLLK
measurementLabel: IC50 (nM)

{"molSmiles": "C[C@]1(c2cc(NC(=O)c3ccc(Cl)cn3)ccc2F)N=C(N)C2(CCC2)S(=O)(=O)[C@@H]1F", "measurementLabel": "IC50", "quantityUnit": "nM", "recordedNumber": 1.6}

[1] COc1cnc2c(Nc3ccc(F)c([C@]4(C)CS(=O)(=O)[C@@](C)(F)C(N)=N4)c3)nccc2c1
[2] Cc1cc(Cl)cnc1C(=O)Nc1ccc(F)c([C@@]2(C)N=C(N)C3(CC3)S(=O)(=O)[C@@H]2F)c1
[3] Cc1cc(OCC2CCC2)cnc1C(=O)Nc1ccc(F)c([C@]2(CF)CS(=O)(=O)C(C)(C)C(N)=N2)c1
[4] C[C@]1(c2cc(NC(=O)c3cnc(C(F)F)cn3)ccc2F)N=C(N)C2(CCC2)S(=O)(=O)[C@@H]1F
# input Falling order of IC50, please. Submit the labels in the order that the ranking request calls for.
# output 1, 4, 3, 2

###

biological target: Cathepsin D (Cat D) (Homo sapiens); construct: Recombinant Cat D was expressed in CHO cells; made in house; host or cells: CHO cells; test: In vitro enzymatic Cathepsin D (Cat D) FRET assay; format: biochemical; details: read-out: CatD IC50
Sequence (P07339 65-412, species assumed): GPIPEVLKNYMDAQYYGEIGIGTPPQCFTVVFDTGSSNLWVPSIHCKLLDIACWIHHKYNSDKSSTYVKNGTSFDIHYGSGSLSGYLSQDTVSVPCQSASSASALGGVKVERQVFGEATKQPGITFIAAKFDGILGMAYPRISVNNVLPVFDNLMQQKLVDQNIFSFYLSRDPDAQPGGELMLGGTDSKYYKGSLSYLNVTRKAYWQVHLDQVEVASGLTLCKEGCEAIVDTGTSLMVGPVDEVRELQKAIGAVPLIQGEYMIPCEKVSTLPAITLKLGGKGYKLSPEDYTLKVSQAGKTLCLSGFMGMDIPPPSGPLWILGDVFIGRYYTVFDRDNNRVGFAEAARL
measurementLabel: IC50 (µM)
Numbers only here, please. The scale is µM.

{"molSmiles": "CC1(C)C(N)=N[C@](C)(c2cc(Oc3nccc(C(F)(F)F)c3C#N)ccc2F)CS1(=O)=O", "experimentalSystem": "Cathepsin D (Cat D) (Homo sapiens)", "IC50 (µM)": 771}

Now, please, on to the next compound.
# input Query IC50 for `C[C@@]1(c2cc(Br)ncc2F)CS(=O)(=O)C2(CCC2)C(N)=N1`
# output 43.5

###

target: Cathepsin D (Cat D) (Homo sapiens); construct: Recombinant Cat D was expressed in CHO cells; made in house; host or cells: CHO cells; test: In vitro enzymatic Cathepsin D (Cat D) FRET assay; type: biochemical; details: read-out: CatD IC50
measurementLabel: IC50

Previously resolved entries follow.
{"compound": "CCOc1cnc2c(Nc3ccc(F)c([C@]4(CF)CS(=O)(=O)C5(CCC5)C(N)=N4)c3)ncc(F)c2c1", "result": "> 1.65 µM"}
{"compound": "CC1(C)C(N)=N[C@](C)(c2cc(NC(=O)c3ccc(F)cn3)ccc2F)CS1(=O)=O", "result": "> 400 µM"}

Kindly consider the entry below.
# input Tell me its IC50 given COc1cnc(C(=O)Nc2ccc(F)c([C@]3(C)CS(=O)(=O)C(C)C(N)=N3)c2)cn1 (stereo partly drawn) as the entry.
# output > 400 µM
